- Assay explanation: ATG_M_06_EcoTox2: Attagene TRANS-FACTORIAL EcoTox-2 HepG2 Assay for M06 Transcription Factor (Internal Marker)
Results filed as inconclusive are left out. Active and inactive are the calls of the source. The calls were made as follows: active = hit-call score of the fitted dose curve at least 0.9, where 1 is the maximum; inconclusive = response in the unintended direction; inactive = score below 0.9.
Measured metric: outcome

>>> result("CC(C)(Oc1ccc(C2CC2(Cl)Cl)cc1)C(=O)O (stereo not drawn)")
"inactive"
>>> result("CN(CCOc1ccc(CC2SC(=O)NC2=O)cc1)c1ccccn1 (stereo not drawn)")
"inactive"
>>> result("C=C(c1ccc(C(=O)O)cc1)c1cc2c(cc1C)C(C)(C)CCC2(C)C")
"inactive"
>>> result("Cc1cccc(Nc2cc(Cl)nc(SCC(=O)O)n2)c1C")
"inactive"
>>> result("CC(C)OC(=O)C(C)(C)Oc1ccc(C(=O)c2ccc(Cl)cc2)cc1")
"inactive"
>>> result("Cc1c(C)c2c(c(C)c1O)CCC(C)(COc1ccc(CC3SC(=O)NC3=O)cc1)O2 (stereo not drawn)")
"inactive"
>>> result("CC(C)(Oc1ccc(CCNC(=O)c2ccc(Cl)cc2)cc1)C(=O)O")
"inactive"
>>> result("CC(c1cc2ccccc2s1)N(O)C(N)=O (stereo not drawn)")
"inactive"
